assay: Pharmacokinetic study of I-11 in female BALB/c mice (Example 4); format: in vivo, Balb/c mouse; details: female, BALB/c, mouse, plasma, po, 50 mg/kg, PO 50 mg/kg, 24 hr
readoutLabel: concentration at 24 hr (ng/mL)
A number alone suffices; assume ng/mL.

input: Sample "CC(C)Cc1sc(Nc2ncc(-c3cccs3)cc2C(=O)O)nc1C(C)(C)C" — what was its concentration at 24 hr?
output: 83.3

----------
test: Pharmacokinetic studies of certain compounds in female Balb/c mice (Example 5); type: in vivo; conditions: female, Balb/c, mouse, plasma, iv, 1 mg/kg, I-3 IV 1 mg/kg, 0.083 hr, read-out: Plasma concentration Mean
readoutLabel: concentration at 0.083 hr
A complete answer gives the number and then names the unit.

input: Sample "CC(C)Cc1sc(Nc2ncc(-c3cccs3)cc2C(=O)O)nc1C1CCCCC1" — what was its concentration at 0.083 hr?
output: 2120 ng/mL

The reported measurements were obtained from patent US20240208961A1.
